Attribution: PubChem BioAssay (NCI)

Here, each record is paired with measured growth data.
Tested on: MALME-3M melanoma
Assay: NCI-60 one-dose screen, 48 h (100 = growth as untreated, 0 = no growth, -100 = all killed)
Conditions: 10 µM unless noted
About 83,000 compounds went through this panel and 20% of them were active in at least one assay; those are over-represented in the sample as a whole.
Just the number in %, nothing appended.

Recorded growth, per entry:
Molecule: CCOc1ccc(/C=N/Nc2cc(C)nc3ccc(Cl)cc23)cc1
Target Entity: MALME-3M melanoma
Observed Value: -38.9

Molecule: Nc1ncc(C#Cc2cncc(NC(=O)c3cccc(C(F)(F)F)c3)c2)c2cccnc12
Target Entity: MALME-3M melanoma
Observed Value: -6.22

Molecule: Cc1ccccc1CNc1ccc(N2CCOCC2)cc1
Target Entity: MALME-3M melanoma
Observed Value: 102

Molecule: COc1ccc2c(c1)OC1=C(C(=O)OC1)C2c1cc(OC)c(OC)c(OC)c1 (stereo not given)
Target Entity: MALME-3M melanoma
Observed Value: 61.1

# next molecule below
Please report the recorded growth for "COc1ccc(C(=O)c2cc3c(N)c(C(=O)Nc4cccc(Cl)c4)sc3nc2C)cc1" .
51.2

###

System: SK-MEL-2 melanoma
Assay: NCI-60 one-dose screen, 48 h
Settings: 10 µM unless noted
Compounds without any hit were thinned out: in the full panel of roughly 83,000, 20% have a hit. Active and inactive are the calls of the source. Rule for the calls: active = growth percent below 10; inactive = the rest.
The reply should name one outcome from active, inactive

Compound String: C=C1C(=O)O[C@H]2[C@H]1CC/C(COC(=O)CCCCCC(=O)OC/C1=C/CC[C@@]3(C)O[C@H]3[C@H]3OC(=O)C(=C)[C@@H]3CC1)=C\CC[C@@]1(C)O[C@@H]21
Cat: inactive
//
Compound String: O=C(O)CCCCCCCCCCCCCCC(=O)O
Cat: inactive
//
Compound String: COc1cc(/C=N/NC(=O)c2ccccc2Nc2cccc(C(F)(F)F)c2)ccc1O
Cat: inactive
//
Compound String: C=C(C)[C@@H]1CC[C@]2(C(=O)O)CC[C@]3(C)[C@H](CC[C@@H]4[C@@]5(C)C[C@@H](CC#Cc6ccc(Br)cc6)C(=O)C(C)(C)[C@@H]5CC[C@]43C)[C@@H]12
Cat: active
//
Compound String: CN1CCCC1=Nc1ccccc1
Cat: inactive
//
Compound String: COc1cc(/C=C/C(=O)c2c(C)oc3nc[nH]c(=O)c23)ccc1O
Cat: inactive

// param item: "O=S(=O)(c1ccc(N/N=C\c2ccccc2)cc1)c1ccc(N/N=C/c2ccccc2)cc1" ; yields the recorded call
inactive

// param item: "CC(=O)CCSc1ccc(OC(C)=O)cc1" ; yields the recorded call
inactive

// param item: "CC(=O)c1cccc(NS(=O)(=O)c2cccc(C(=O)Nc3ccc(Br)cc3)c2)c1" ; yields the recorded call
inactive

###

Here, each record is paired with measured growth data.
Tested on: M14 melanoma
Experiment: NCI-60 one-dose screen, 48 h (100 = growth as untreated, 0 = no growth, -100 = all killed)
Details: 10 µM unless noted
The panel holds about 83,000 compounds, 20% with a hit somewhere; the sample as a whole holds those more often.
Just the number in %, nothing appended.

Compound: O=C(Nc1ccc(Cl)cc1)Nc1ccc(Cl)c(Cl)c1
Target Entity: M14 melanoma
growth, %: 22.8
//
Compound: COc1ccc(C2CC(c3cccc(Nc4ccncc4)c3)=NN2c2ccccc2)cc1 (stereo not given)
Target Entity: M14 melanoma
growth, %: -46
//
Compound: FC(F)(F)c1cccc(Nc2ccccc2)c1
Target Entity: M14 melanoma
growth, %: 106
//
Compound: O=C(O)c1ccc[n+](CC(=O)N2CCN(c3cc4c(cc3F)c(=O)c(C(=O)O)cn4C3CC3)CC2)c1
Target Entity: M14 melanoma
growth, %: 64.6

Form: Entry = "COc1cc(NCCN(CC(C)C)C2CCCC2)c2ncccc2c1" | System = M14 melanoma | growth = ____
102

Form: Entry = Clc1ccc(N2N=C(c3cccc(Nc4ccncc4)c3)CC2c2ccccc2)cc1 (stereo not given) | System = M14 melanoma | growth = ____
-55.4

Form: Entry = "O=C(CN1CCOCC1)Nc1ccc2ncnc(Nc3ccc(OCc4cccc(F)c4)c(Cl)c3)c2c1" | System = M14 melanoma | growth = ____
68.5

Form: Entry = "C[C@@H]1CN(Cc2ccc(/C=C/c3n[nH]c4ccc5nc(-c6cn[nH]c6C(F)(F)F)c6c(c5c34)CCCC6)cc2)C[C@H](C)O1" | System = M14 melanoma | growth = ____
18.9

Form: Entry = "COc1ccc(-c2nc(SCC(C)C)nc(N/N=C(/C)c3ccc(OC)c(OC)c3)c2C#N)cc1" | System = M14 melanoma | growth = ____
94

Form: Entry = "CN(C)CCCn1c2c(c3ccc(-c4ccn[nH]4)cc3c1=O)C(=O)c1ccccc1-2" | System = M14 melanoma | growth = ____
48
